Parameter: Fik Kinase %Inhibition. Scope: all listed entries.
tested target: FLK-1 receptor (Mus musculus, UniProt P35918)
Construct: expressed in transfected cells; host or cells: NIH3T3 C7#3
Sequence (P35918 20-1345): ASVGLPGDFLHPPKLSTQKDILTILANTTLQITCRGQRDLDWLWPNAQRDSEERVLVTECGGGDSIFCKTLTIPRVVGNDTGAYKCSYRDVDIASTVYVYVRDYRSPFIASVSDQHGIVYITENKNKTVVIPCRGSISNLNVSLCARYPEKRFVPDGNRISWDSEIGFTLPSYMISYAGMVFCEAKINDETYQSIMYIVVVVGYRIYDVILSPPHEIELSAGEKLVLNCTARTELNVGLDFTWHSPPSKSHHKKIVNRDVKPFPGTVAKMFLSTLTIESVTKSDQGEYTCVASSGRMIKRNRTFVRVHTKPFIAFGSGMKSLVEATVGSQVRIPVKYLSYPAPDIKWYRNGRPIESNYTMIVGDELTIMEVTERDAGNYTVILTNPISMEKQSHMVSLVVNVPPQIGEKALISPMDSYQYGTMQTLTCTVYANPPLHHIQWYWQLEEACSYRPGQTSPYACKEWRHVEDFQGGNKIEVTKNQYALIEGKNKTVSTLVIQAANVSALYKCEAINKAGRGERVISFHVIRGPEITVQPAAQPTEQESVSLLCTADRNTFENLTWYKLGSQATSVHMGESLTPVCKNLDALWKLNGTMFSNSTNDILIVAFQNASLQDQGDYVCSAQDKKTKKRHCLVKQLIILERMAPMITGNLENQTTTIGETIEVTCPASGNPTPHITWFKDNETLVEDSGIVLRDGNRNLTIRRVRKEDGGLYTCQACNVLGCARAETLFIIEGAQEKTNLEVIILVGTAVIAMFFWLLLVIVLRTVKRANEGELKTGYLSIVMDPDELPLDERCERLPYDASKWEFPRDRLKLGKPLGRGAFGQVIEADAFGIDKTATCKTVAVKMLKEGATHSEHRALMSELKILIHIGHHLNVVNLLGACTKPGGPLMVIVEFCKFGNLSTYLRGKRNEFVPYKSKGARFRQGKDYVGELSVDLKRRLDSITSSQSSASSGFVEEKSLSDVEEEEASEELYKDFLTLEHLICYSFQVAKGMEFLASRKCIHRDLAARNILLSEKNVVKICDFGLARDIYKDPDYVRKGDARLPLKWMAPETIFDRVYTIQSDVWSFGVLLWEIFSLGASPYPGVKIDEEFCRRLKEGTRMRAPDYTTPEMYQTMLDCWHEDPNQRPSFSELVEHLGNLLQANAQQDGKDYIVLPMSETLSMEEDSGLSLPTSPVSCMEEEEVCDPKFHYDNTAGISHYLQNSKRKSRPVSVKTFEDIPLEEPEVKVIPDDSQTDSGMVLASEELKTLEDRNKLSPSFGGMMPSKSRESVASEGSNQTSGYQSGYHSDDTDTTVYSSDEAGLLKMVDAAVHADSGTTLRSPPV
assay comment: FLK-1 ELISA (kinase activity of the FLK-1 receptor in FLK-1/NIH3T3 cells, VEGF stimulated)
Format: cell-based

{"smiles entry": "CNS(=O)(=O)c1ccc2c(c1)C(=Cc1cc3ccccc3nc1Cl)C(=O)N2", "Fik Kinase %Inhibition / %": 8.6}
{"smiles entry": "CCOC(=O)c1c(C)[nH]c(C=C2C(=O)Nc3ccc(CCCl)cc32)c1C", "Fik Kinase %Inhibition / %": -2.5}
{"smiles entry": "CC(C)(C)c1cc(C=C2C(=O)Nc3ccc(I)cc32)cc(Cl)c1O", "Fik Kinase %Inhibition / %": 11.2}
{"smiles entry": "O=C1Nc2ccc(I)cc2C1=Cc1ccccn1", "Fik Kinase %Inhibition / %": -13.4}
{"smiles entry": "O=C1Nc2c(Br)cc(Br)cc2C1=Cc1ccccn1", "Fik Kinase %Inhibition / %": -10.0}
{"smiles entry": "Cc1c(Br)ccc2c1C(=Cc1cc3c([nH]1)CCCC3)C(=O)N2", "Fik Kinase %Inhibition / %": 56.4}
{"smiles entry": "CNS(=O)(=O)c1ccc2c(c1)C(=Cc1cc([N+](=O)[O-])c(O)c(C(C)(C)C)c1)C(=O)N2", "Fik Kinase %Inhibition / %": 30.7}
{"smiles entry": "CNS(=O)(=O)c1ccc2c(c1)C(=Cc1cc(OC)cc(Br)c1O)C(=O)N2", "Fik Kinase %Inhibition / %": 1.1}
{"smiles entry": "CC(C)c1ccc2occ(C=C3C(=O)Nc4ccc(I)cc43)c(=O)c2c1", "Fik Kinase %Inhibition / %": 3.8}

* * *

tested target: FLK-1 receptor (Mus musculus, UniProt P35918)
Construct: expressed in transfected cells; host or cells: NIH3T3 C7#3
assay comment: FLK-1 ELISA (kinase activity of the FLK-1 receptor in FLK-1/NIH3T3 cells, VEGF stimulated)
Type: cell-based

{"compound": "O=C1Nc2ccc(CCCl)cc2C1=Cc1ccc(Br)o1 [10726/G05]", "tested target": "FLK-1 receptor (Mus musculus, UniProt P35918)", "units text": "%", "Fik Kinase %Inhibition": 14.9}
{"compound": "COc1cccc(O)c1C=C1C(=O)Nc2c(Br)cc(Br)cc21 [10717/A10]", "tested target": "FLK-1 receptor (Mus musculus, UniProt P35918)", "units text": "%", "Fik Kinase %Inhibition": -3.3}
{"compound": "O=C1Nc2ccc(S(=O)(=O)N3CCOCC3)cc2C1=Cc1cc([N+](=O)[O-])cc(CCl)c1O [10721/F06]", "tested target": "FLK-1 receptor (Mus musculus, UniProt P35918)", "units text": "%", "Fik Kinase %Inhibition": 2.2}
{"compound": "CSc1ccc(C=C2C(=O)Nc3c(Br)cc(Br)cc32)s1 [10720/A07]", "tested target": "FLK-1 receptor (Mus musculus, UniProt P35918)", "units text": "%", "Fik Kinase %Inhibition": 6.6}
{"compound": "O=C1Nc2ccc(CCCl)cc2C1=Cc1c(Br)cnn1-c1ccc(Cl)cc1 [10725/G10]", "tested target": "FLK-1 receptor (Mus musculus, UniProt P35918)", "units text": "%", "Fik Kinase %Inhibition": 11.1}
{"compound": "O=C1Nc2ccc(I)cc2C1=Cc1c[nH]c2ccccc12 [10717/B06]", "tested target": "FLK-1 receptor (Mus musculus, UniProt P35918)", "units text": "%", "Fik Kinase %Inhibition": 5.4}
{"compound": "O=C1Nc2c(Br)cc(Br)cc2C1=Cc1ccc(F)cc1 [10717/A05]", "tested target": "FLK-1 receptor (Mus musculus, UniProt P35918)", "units text": "%", "Fik Kinase %Inhibition": -2.6}
{"compound": "COc1ccc(C=C2C(=O)Nc3ccc(Br)c(C)c32)c(OC)c1 [10719/C04]", "tested target": "FLK-1 receptor (Mus musculus, UniProt P35918)", "units text": "%", "Fik Kinase %Inhibition": 59.9}
{"compound": "COc1c(O)ccc(C=C2C(=O)Nc3ccc(S(=O)(=O)Nc4ccc(C(F)(F)F)cc4)cc32)c1[N+](=O)[O-] [10733/E11]", "tested target": "FLK-1 receptor (Mus musculus, UniProt P35918)", "units text": "%", "Fik Kinase %Inhibition": 5.5}
{"compound": "CC(C)(C)c1cc(C=C2C(=O)Nc3ccc(I)cc32)cc(I)c1OCc1ccccc1 [10733/B02]", "tested target": "FLK-1 receptor (Mus musculus, UniProt P35918)", "units text": "%", "Fik Kinase %Inhibition": -7.4}
{"compound": "COc1c(C(C)(C)C)cc(C=C2C(=O)Nc3ccc(S(=O)(=O)N4CCOCC4)cc32)cc1C(C)(C)C [10733/F04]", "tested target": "FLK-1 receptor (Mus musculus, UniProt P35918)", "units text": "%", "Fik Kinase %Inhibition": 21.4}
{"compound": "CCCCN(CCCC)c1ccc(C=C2C(=O)Nc3ccc(I)cc32)cc1 [10722/B10]", "tested target": "FLK-1 receptor (Mus musculus, UniProt P35918)", "units text": "%", "Fik Kinase %Inhibition": -0.9}
{"compound": "CCN(CC)c1ccc(C=C2C(=O)Nc3ccc(CCCl)cc32)cc1 [10727/G02]", "tested target": "FLK-1 receptor (Mus musculus, UniProt P35918)", "units text": "%", "Fik Kinase %Inhibition": 7.1}
{"compound": "COc1ccc(O)c(C=C2C(=O)Nc3ccc(S(=O)(=O)Nc4ccc(C(F)(F)F)cc4)cc32)c1 [10720/E10]", "tested target": "FLK-1 receptor (Mus musculus, UniProt P35918)", "units text": "%", "Fik Kinase %Inhibition": -4.1}
{"compound": "O=C1Nc2c(Br)cc(Br)cc2C1=Cc1ccccc1Br [10723/A07]", "tested target": "FLK-1 receptor (Mus musculus, UniProt P35918)", "units text": "%", "Fik Kinase %Inhibition": -6.1}
{"compound": "CNS(=O)(=O)c1ccc2c(c1)C(=Cc1ccc[nH]1)C(=O)N2 [10717/D09]", "tested target": "FLK-1 receptor (Mus musculus, UniProt P35918)", "units text": "%", "Fik Kinase %Inhibition": -55.0}
{"compound": "O=C1Nc2c(Br)cc(Br)cc2C1=Cc1cccs1 [10717/A03]", "tested target": "FLK-1 receptor (Mus musculus, UniProt P35918)", "units text": "%", "Fik Kinase %Inhibition": 2.9}
{"compound": "CCOC(=O)CCc1c(C(=O)OCC)[nH]c(C=C2C(=O)Nc3ccc(S(=O)(=O)Nc4ccc(C(F)(F)F)cc4)cc32)c1CC(=O)OCC [10718/E05]", "tested target": "FLK-1 receptor (Mus musculus, UniProt P35918)", "units text": "%", "Fik Kinase %Inhibition": 16.1}
{"compound": "O=C1Nc2ccc(I)cc2C1=Cc1sccc1Br [10725/B02]", "tested target": "FLK-1 receptor (Mus musculus, UniProt P35918)", "units text": "%", "Fik Kinase %Inhibition": -2.8}
{"compound": "O=C1Nc2ccc(CCCl)cc2C1=Cc1ccccc1 [10720/G06]", "tested target": "FLK-1 receptor (Mus musculus, UniProt P35918)", "units text": "%", "Fik Kinase %Inhibition": -3.4}
{"compound": "Cc1c(Br)ccc2c1C(=C1C(=O)Nc3ccc(F)cc31)C(=O)N2 [10726/C08]", "tested target": "FLK-1 receptor (Mus musculus, UniProt P35918)", "units text": "%", "Fik Kinase %Inhibition": 3.4}
{"compound": "CNS(=O)(=O)c1ccc2c(c1)C(=Cc1c(C)cc(O)cc1O)C(=O)N2 [10720/D08]", "tested target": "FLK-1 receptor (Mus musculus, UniProt P35918)", "units text": "%", "Fik Kinase %Inhibition": 3.3}
{"compound": "O=C1Nc2ccc(S(=O)(=O)Nc3ccc(C(F)(F)F)cc3)cc2C1=Cc1ccc(F)cc1F [10722/E06]", "tested target": "FLK-1 receptor (Mus musculus, UniProt P35918)", "units text": "%", "Fik Kinase %Inhibition": 21.4}
{"compound": "O=C1Nc2ccc(CCCl)cc2C1=Cc1cc(O)c2c(c1O)CCCC2 [10726/G07]", "tested target": "FLK-1 receptor (Mus musculus, UniProt P35918)", "units text": "%", "Fik Kinase %Inhibition": -13.7}
{"compound": "O=C1Nc2c(Br)cc(Br)cc2C1=Cc1ccc(O)cc1 [10719/A07]", "tested target": "FLK-1 receptor (Mus musculus, UniProt P35918)", "units text": "%", "Fik Kinase %Inhibition": 21.3}
{"compound": "O=C1Nc2ccc(CCCl)cc2C1=CC1C=CCCC1 (stereo not drawn) [10729/G11]", "tested target": "FLK-1 receptor (Mus musculus, UniProt P35918)", "units text": "%", "Fik Kinase %Inhibition": -0.5}
{"compound": "CNS(=O)(=O)c1ccc2c(c1)C(=Cc1cc(Br)cc(Br)c1O)C(=O)N2 [10734/D07]", "tested target": "FLK-1 receptor (Mus musculus, UniProt P35918)", "units text": "%", "Fik Kinase %Inhibition": 14.7}
{"compound": "COc1c(Cl)cc(C=C2C(=O)Nc3ccc(CCCl)cc32)cc1C(C)(C)C [10732/G09]", "tested target": "FLK-1 receptor (Mus musculus, UniProt P35918)", "units text": "%", "Fik Kinase %Inhibition": 16.9}
{"compound": "O=C1Nc2c(Br)cc(Br)cc2C1=Cc1cc(Cl)cc(Br)c1O [10727/A04]", "tested target": "FLK-1 receptor (Mus musculus, UniProt P35918)", "units text": "%", "Fik Kinase %Inhibition": -4.6}
{"compound": "Cc1cc2occ(C=C3C(=O)Nc4ccc(I)cc43)c(=O)c2cc1C [10731/B03]", "tested target": "FLK-1 receptor (Mus musculus, UniProt P35918)", "units text": "%", "Fik Kinase %Inhibition": 1.9}
{"compound": "COc1c(Cl)cc(C=C2C(=O)Nc3ccc(S(=O)(=O)N4CCOCC4)cc32)cc1C(C)(C)C [10732/F09]", "tested target": "FLK-1 receptor (Mus musculus, UniProt P35918)", "units text": "%", "Fik Kinase %Inhibition": 25.6}
{"compound": "CNS(=O)(=O)c1ccc2c(c1)C(=Cc1cc(C(C)(C)C)c(O)c(C(C)(C)C)c1)C(=O)N2 [10721/D11]", "tested target": "FLK-1 receptor (Mus musculus, UniProt P35918)", "units text": "%", "Fik Kinase %Inhibition": 20.6}
{"compound": "CNS(=O)(=O)c1ccc2c(c1)C(=Cc1ccc(O)c(C(C)(C)C)c1)C(=O)N2 [10721/D09]", "tested target": "FLK-1 receptor (Mus musculus, UniProt P35918)", "units text": "%", "Fik Kinase %Inhibition": 17.6}
{"compound": "O=C1Nc2ccc(S(=O)(=O)N3CCOCC3)cc2C1=Cc1ccc(O)cc1 [10719/F07]", "tested target": "FLK-1 receptor (Mus musculus, UniProt P35918)", "units text": "%", "Fik Kinase %Inhibition": 18.7}
{"compound": "CNS(=O)(=O)c1ccc2c(c1)C(=Cc1cccc(F)c1O)C(=O)N2 [10734/D08]", "tested target": "FLK-1 receptor (Mus musculus, UniProt P35918)", "units text": "%", "Fik Kinase %Inhibition": 2.5}

The origin of these recorded values is patent EP1247803A2.
